Hello, the source for this data is patent US8399452B2, in case you need it.

- target.or.system: histone deacetylase (HDAC Enzyme)
- experimental.details: Inhibition of Histone Deacetylase Enzymatic Activity (Boc-Lys(Ac)-AMC, Fluor-de-Lys developer)
- Format: biochemical
- run.conditions: read-out: HDAC Inhibtion (IC50 μM) HDAC Enzyme
experimental.endpoint: IC50

As a guide, the following entries are already answered.
molecule: O=C(NO)c1ccc(C2=Nc3ccc(C(F)(F)F)nc3Oc3ccccc32)cc1
IC50: 0.05 to 0.1 µM

molecule: O=C(NO)c1ccc(C2=Nc3ccccc3Oc3c(F)cccc32)cc1
IC50: 0.1 to 1 µM

molecule: O=C(NO)c1ccc(C2=Nc3ccccc3Cn3cccc32)cc1
IC50: < 0.05 µM

molecule: O=C(NO)c1ccc(CNC2=Nc3ccccc3N(C3CC3)c3ccccc32)cc1
IC50: 0.1 to 1 µM

molecule: O=C(NO)c1ccc(C2=Nc3ccccc3N(C3CC3)c3ccc(F)cc32)cc1
IC50: 0.05 to 0.1 µM

molecule: O=C(NO)c1ccc(C2=Nc3ccccc3Oc3c(OCCN4CCOCC4)cccc32)cc1
IC50: < 0.05 µM

molecule: O=C(NO)c1ccc(C2=Nc3ccccc3Oc3cc(F)ccc32)cc1
IC50: 0.1 to 1 µM

molecule: O=C(NO)c1ccc(C2=Nc3ccccc3N(CCN3CCOCC3)c3ccccc32)cc1
IC50: 0.1 to 1 µM

q: Value wanted: IC50 (histone deacetylase (HDAC Enzyme)) of entry O=C(NO)c1ccc(C2=Nc3ccccc3Oc3ccsc32)cc1
a: < 0.05 µM

q: Value wanted: IC50 (histone deacetylase (HDAC Enzyme)) of entry O=C(NO)c1ccc(C2=Nc3ccccc3N(C3CC3)c3ncccc32)cc1
a: < 0.05 µM

====

Recorded IC50 for the following compounds
- target.or.system: histone deacetylase (HDAC Enzyme)
- experimental.details: Inhibition of Histone Deacetylase Enzymatic Activity (Boc-Lys(Ac)-AMC, Fluor-de-Lys developer)
- Format: biochemical
- run.conditions: Table 9; read-out: HDAC Inhibition (IC50 μM) HDAC Enzyme

As a guide, the following entries are already answered.
compound: O=C(NO)c1cnc(N2C[C@@H]3C[C@H]2CN3C(=O)C(c2ccccc2)c2ccccc2)nc1
experimental.endpoint: IC50
data.value: 0.05 to 0.1 µM
--
compound: O=C(NO)c1cnc(N2C[C@@H]3C[C@H]2CN3c2cccc(C(F)(F)F)c2)s1
experimental.endpoint: IC50
data.value: < 0.05 µM
--
compound: O=C(NO)c1cnc(N2C[C@@H]3C[C@H]2CN3C(=O)OCC2CC2)nc1
experimental.endpoint: IC50
data.value: < 0.05 µM
--
compound: O=C(NO)c1cnc(N2C[C@@H]3C[C@H]2CN3Cc2ccccc2)nc1
experimental.endpoint: IC50
data.value: 0.1 to 1 µM
--
compound: O=C(NO)c1cnc(N2C[C@@H]3C[C@H]2CN3c2ccc(C(F)(F)F)cc2F)nc1
experimental.endpoint: IC50
data.value: < 0.05 µM

q: // IC50 lookup, key: O=C(NO)c1cnc(N2C[C@@H]3C[C@H]2CN3c2cccc(F)c2)nc1
a: < 0.05 µM

q: // IC50 lookup, key: O=C(NO)c1cnc(N2C[C@@H]3C[C@H]2CN3c2cc(C(F)(F)F)nc3ccccc23)nc1
a: < 0.05 µM

q: // IC50 lookup, key: Cc1ccc(N2CC3CC2CN3c2ccc(C(=O)NO)cn2)cc1 (stereo not shown)
a: < 0.05 µM

q: // IC50 lookup, key: O=C(NO)c1cnc(N2C[C@@H]3C[C@H]2CN3c2noc3ccccc23)nc1
a: < 0.05 µM

q: // IC50 lookup, key: O=C(NO)c1ccc(N2C[C@@H]3C[C@H]2CN3c2cccc(C(F)(F)F)c2)nn1
a: 0.1 to 1 µM

q: // IC50 lookup, key: CN(C)C(=O)c1cccc(N2C[C@@H]3C[C@H]2CN3c2ncc(C(=O)NO)cn2)c1
a: < 0.05 µM

q: // IC50 lookup, key: N#Cc1cccc(N2CC3CC2CN3c2ncc(C(=O)NO)cn2)c1 (stereo not shown)
a: < 0.05 µM

====

- target.or.system: histone deacetylase (HDAC Enzyme)
- experimental.details: Inhibition of Histone Deacetylase Enzymatic Activity (Boc-Lys(Ac)-AMC, Fluor-de-Lys developer)
- Type: biochemical
- run.conditions: read-out: HDAC Inhibtion (IC50 μM) HDAC Enzyme
Recorded IC50 for the following compounds

As a guide, the following entries are already answered.
given.smiles: O=C(NO)c1ccc(C2=Nc3ccccc3Oc3ccccc32)cc1F
IC50: 0.1 to 1 µM

given.smiles: O=C(NO)c1ccc(C2=Nc3ccc(C(F)(F)F)cc3Oc3ccccc32)cc1
IC50: 0.1 to 1 µM

given.smiles: CCCc1cccc2c1Oc1ccccc1N=C2c1ccc(C(=O)NO)cc1
IC50: 0.1 to 1 µM

given.smiles: O=C(NO)c1ccc(C2=Nc3ccccc3N(CCCN3CCOCC3)c3ncccc32)cc1
IC50: 0.1 to 1 µM

given.smiles: O=C(NO)c1ccc(C2=Nc3ccccc3Oc3ccc(Cl)cc32)cc1
IC50: < 0.05 µM

given.smiles: CN1CCN(C2=Nc3cc(C(=O)NO)ccc3Oc3ccccc32)CC1
IC50: 0.1 to 1 µM

given.smiles: O=C(NO)c1ccc(C2=Nc3ccccc3Sc3ccccc32)cc1
IC50: 0.1 to 1 µM

given.smiles: Cc1ccc2c(c1)N=C(c1ccc(C(=O)NO)cc1)c1ccccc1O2
IC50: 0.05 to 0.1 µM

q: Value wanted: IC50 (histone deacetylase (HDAC Enzyme)) of entry O=C(NO)c1ccc(CCNC2=Nc3ccccc3Oc3ccccc32)cc1
a: 0.1 to 1 µM

q: Value wanted: IC50 (histone deacetylase (HDAC Enzyme)) of entry O=C(NO)c1ccc(C2=Nc3ccccc3N(C3CC3)c3ccccc32)cc1
a: 0.1 to 1 µM

q: Value wanted: IC50 (histone deacetylase (HDAC Enzyme)) of entry CCN1c2ccccc2N=C(c2ccc(C(=O)NO)cc2)c2ccccc21
a: 0.05 to 0.1 µM

====

- target.or.system: histone deacetylase (HDAC Enzyme)
- experimental.details: Inhibition of Histone Deacetylase Enzymatic Activity (Boc-Lys(Ac)-AMC, Fluor-de-Lys developer)
- Type: biochemical
- run.conditions: read-out: HDAC Inhibtion (IC50 μM) HDAC Enzyme
Recorded IC50 for the following molecules

q: // IC50 lookup, key: O=C(NO)c1ccc(C2=Nc3ccccc3N(CC3CC3)c3ncccc32)cc1
a: 1 to 10 µM

q: // IC50 lookup, key: O=C(NO)c1ccc(C2=Nc3ccccc3Oc3ccccc32)cc1
a: < 0.05 µM

====

- target.or.system: histone deacetylase (HDAC Enzyme)
- experimental.details: Inhibition of Histone Deacetylase Enzymatic Activity (Boc-Lys(Ac)-AMC, Fluor-de-Lys developer)
- Format: biochemical
- run.conditions: Table 9; read-out: HDAC Inhibition (IC50 μM) HDAC Enzyme
Recorded IC50 for the following compounds

given.smiles: O=C(NO)c1cnc(N2C[C@@H]3C[C@H]2CN3c2cc(C(F)(F)F)ccn2)nc1
IC50: < 0.05 µM
--
given.smiles: O=C(NO)c1cnc(N2C[C@@H]3C[C@H]2CN3C(=O)N2CCCC2)nc1
IC50: 0.05 to 0.1 µM
--
given.smiles: O=C(NO)c1cnc(N2C[C@@H]3C[C@H]2CN3C(=O)c2ccccc2)nc1
IC50: < 0.05 µM
--
given.smiles: O=C(NO)c1ccc(N2C[C@@H]3C[C@H]2CN3c2cccc(C(F)(F)F)c2)cc1F
IC50: 0.1 to 1 µM
--
given.smiles: O=C(NO)c1cnc(N2C[C@@H]3C[C@H]2CN3c2ccccc2C(F)(F)F)nc1
IC50: 0.1 to 1 µM
--
given.smiles: O=C(NO)c1cnc(N2C[C@@H]3C[C@H]2CN3c2cc(C(F)(F)F)cc(C(F)(F)F)c2)nc1
IC50: < 0.05 µM

q: // IC50 lookup, key: Cc1cccc(N2C[C@H]3C[C@@H]2CN3c2ncc(C(=O)NO)cn2)c1
a: 0.05 to 0.1 µM

q: // IC50 lookup, key: CC(C)(C)OC(=O)N1C[C@@H]2C[C@H]1CN2c1ncc(C(=O)NO)cn1
a: < 0.05 µM

q: // IC50 lookup, key: O=C(NO)c1cnc(N2C[C@@H]3C[C@H]2CN3c2cncc(C(F)(F)F)c2)nc1
a: < 0.05 µM

====

- target.or.system: histone deacetylase (HDAC Enzyme)
- experimental.details: Inhibition of Histone Deacetylase Enzymatic Activity (Boc-Lys(Ac)-AMC, Fluor-de-Lys developer)
- Format: biochemical
- run.conditions: Table 10; read-out: HDAC Inhibition (IC50 μM) HDAC Enzyme
experimental.endpoint: IC50

q: Value wanted: IC50 (histone deacetylase (HDAC Enzyme)) of entry O=C(CCCCCCN1C(=O)c2ccccc2N(C2CC2)c2ccccc21)NO
a: 0.1 to 1 µM

====

- target.or.system: histone deacetylase (HDAC Enzyme)
- experimental.details: Inhibition of Histone Deacetylase Enzymatic Activity (Boc-Lys(Ac)-AMC, Fluor-de-Lys developer)
- Type: biochemical
- run.conditions: read-out: HDAC Inhibtion (IC50 μM) HDAC Enzyme
experimental.endpoint: IC50

As a guide, the following entries are already answered.
given.smiles: O=C(NO)c1ccc(C2=Nc3cccnc3Oc3ccccc32)cc1
IC50: < 0.05 µM

given.smiles: O=C(NO)c1cnc(N2CCN(C3=Nc4ccccc4Oc4ccc(Cl)cc43)CC2)nc1
IC50: < 0.05 µM

q: // IC50 lookup, key: O=C(NO)c1ccc(CNC2=Nc3ccccc3Oc3ccccc32)cc1
a: < 0.05 µM

q: // IC50 lookup, key: O=C(NO)c1ccc(C2=Nc3cc(Cl)ccc3Nc3ccccc32)cc1
a: 0.05 to 0.1 µM

q: // IC50 lookup, key: O=C(NO)c1ccc(C2=Nc3ccc(Cl)cc3Oc3ccccc32)cc1
a: 0.1 to 1 µM

q: // IC50 lookup, key: O=C(NO)c1ccc(C2=Nc3ccccc3Oc3cccc(F)c32)cc1
a: < 0.05 µM
